Source: PubChem BioAssay

# testTarget: Dual specificity protein phosphatase 6 (Homo sapiens) (UniProt Q16828)
# Sequence (Q16828 whole entry, looked up): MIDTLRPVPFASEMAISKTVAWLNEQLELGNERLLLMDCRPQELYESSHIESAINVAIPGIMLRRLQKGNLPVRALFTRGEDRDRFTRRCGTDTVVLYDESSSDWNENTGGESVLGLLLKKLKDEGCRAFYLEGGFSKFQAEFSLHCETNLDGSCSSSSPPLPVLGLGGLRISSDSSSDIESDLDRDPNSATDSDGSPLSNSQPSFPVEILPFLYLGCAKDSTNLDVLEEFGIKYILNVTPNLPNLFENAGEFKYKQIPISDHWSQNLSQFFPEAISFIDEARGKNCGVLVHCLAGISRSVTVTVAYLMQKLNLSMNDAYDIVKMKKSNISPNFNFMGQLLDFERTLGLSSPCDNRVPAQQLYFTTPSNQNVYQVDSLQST
# measurementProtocol: DUSP6 inhibitors restoring Erk phosphorylation by chemical complementation, primary imaging in DUSP6-transfected HeLa (AID 609);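 note: phospho-Erk level distribution per well compared with pooled transfected vehicle control wells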
# testConditions: HeLa MKP-3 transfected, phospho-Erk imaging KS statistic; at 10 µM; active compounds read high; cells stimulated with TPA for 15 min
If the reported inhibition equals or exceeds 10%, assign t. If not, assign f.

Exam item: decide whether the reported inhibition for "COc1ccc(CN2CCC(=O)NC2=O)cc1" is at least 10%.
f

###

# measurementProtocol: inhibitors of TNFa-induced NFkB p65 translocation, primary screen, imaging, HUVEC, MLSMR starter and 10KST1 sets (AID 438);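 note: compound added about 3h40 before a 20 min TNFalpha stimulation; signal is the nuclear over cytoplasmic p65 intensity ratio per well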
# testConditions: HUVEC TNFa-induced p65 nuclear translocation; at 2 µM, active compounds read high, 0% TNFa-plus-vehicle, 100% no-TNFa wells
Attribute: inhibition
Give the value in % but do not write % after it.

Below, each entry is followed by its recorded inhibition result.
{"columns": ["molecule", "inhibition, %"],
 "data": [
  ["COc1ccc(C(=O)Cn2c(N3CCCCC3)nc3c2c(=O)n(C)c(=O)n3C)cc1OC", 4.7],
  ["CC(C)Cc1nc(NCCN2CCOCC2)c(C#N)c2c1COC(C)(C)C2", 2.6],
  ["Cc1nc(Sc2cccn2C)c(C(F)(F)F)c(=O)[nH]1", -4.5],
  ["CN1CCN(CC(=O)N2c3ccccc3C(=O)Nc3cccnc32)CC1", 5.4],
  ["C=CCc1c(C)c(C#N)c2nc3ccccc3n2c1N1CCN(C)CC1", -23],
  ["CC(C)c1cc(NCCN2CCOCC2)n2c(nc3ccccc32)c1C#N", -16.7],
  ["COC(=O)c1sc(NC(C)=O)c(C(=O)OC)c1C", -13.3],
  ["C=CCNc1sc(C(=O)C2CC2)c(N)c1C#N", -24.9],
  ["CC1(C)CC(=O)C2=C(C1)N(Cc1ccco1)C(=O)C2(O)C(F)(F)F (centres undefined)", -2.4],
  ["CCSc1nc(N)c2c3c(sc2n1)CCC3", -14.1]
]}

Query inhibition for CC1(C)CC(N(Cc2ccco2)C(=O)Cc2ccccc2)CCO1 (centres undefined)
12.5

Name the recorded inhibition of the item CCCCOc1ccc(C(=O)OC2CC(C)N(C)CC2C)cc1 (centres undefined) in your answer.
-21.6

Answer with reported inhibition of "CSc1nnc(C)c(=O)[nH]1"
3.2

Return inhibition for the following molecule: O=C1NC(c2cccs2)Nc2ccccc21 (centres undefined)
-16.1
